Below is a list of entries, each paired with its recorded pKi value.
Biological target: 5-hydroxytryptamine receptor 1A (Homo sapiens)
Sequence (P08908 whole entry): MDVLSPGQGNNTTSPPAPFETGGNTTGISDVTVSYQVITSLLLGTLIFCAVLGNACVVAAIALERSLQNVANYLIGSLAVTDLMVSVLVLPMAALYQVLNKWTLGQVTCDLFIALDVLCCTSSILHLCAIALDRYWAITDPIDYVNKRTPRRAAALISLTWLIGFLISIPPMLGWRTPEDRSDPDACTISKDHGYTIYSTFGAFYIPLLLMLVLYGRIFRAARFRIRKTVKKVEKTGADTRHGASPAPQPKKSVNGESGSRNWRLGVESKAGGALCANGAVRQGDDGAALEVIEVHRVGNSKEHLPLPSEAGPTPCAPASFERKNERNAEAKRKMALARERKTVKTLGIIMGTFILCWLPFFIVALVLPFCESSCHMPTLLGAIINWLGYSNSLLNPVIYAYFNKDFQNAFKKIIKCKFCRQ
pKi: −log10 of the molar value.
Assay metric: pKi

- Mol: "CCCCCCCCCCOc1ccc2[nH]cc(CCN)c2c1"
  Value reported: 6.24
- Mol: "CCCCCCCCCOc1ccc2[nH]cc(CCNCCCC)c2c1"
  Value reported: 5.81
- Mol: "CC(C)(C)CCCCCCOc1ccc2[nH]cc(CCN)c2c1"
  Value reported: 6.04

====

target: 5-hydroxytryptamine receptor 1D (Homo sapiens, UniProt P28221); assay: Binding affinity of compound against 5-HT1Dalpha Binding affinity of compound against 5-HT1D alpha receptors in human
Sequence (P28221 whole entry): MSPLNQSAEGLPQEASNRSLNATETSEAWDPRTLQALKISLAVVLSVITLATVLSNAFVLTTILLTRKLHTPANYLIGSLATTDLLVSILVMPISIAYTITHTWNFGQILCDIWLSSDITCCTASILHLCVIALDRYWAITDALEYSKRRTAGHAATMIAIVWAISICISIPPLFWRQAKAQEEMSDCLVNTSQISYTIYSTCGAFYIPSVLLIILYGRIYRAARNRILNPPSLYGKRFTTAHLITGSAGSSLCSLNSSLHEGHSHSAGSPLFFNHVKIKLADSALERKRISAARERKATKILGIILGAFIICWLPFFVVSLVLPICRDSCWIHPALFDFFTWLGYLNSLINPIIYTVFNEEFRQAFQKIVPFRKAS

- Compound: "CCCCCCCCCOc1ccc2[nH]c3c(c2c1)CC(N)CC3 (stereo unspecified)"
  Ki: "2350 nM"

====

Molecular target: 5-hydroxytryptamine receptor 1A (Homo sapiens)
Sequence (P08908 whole entry): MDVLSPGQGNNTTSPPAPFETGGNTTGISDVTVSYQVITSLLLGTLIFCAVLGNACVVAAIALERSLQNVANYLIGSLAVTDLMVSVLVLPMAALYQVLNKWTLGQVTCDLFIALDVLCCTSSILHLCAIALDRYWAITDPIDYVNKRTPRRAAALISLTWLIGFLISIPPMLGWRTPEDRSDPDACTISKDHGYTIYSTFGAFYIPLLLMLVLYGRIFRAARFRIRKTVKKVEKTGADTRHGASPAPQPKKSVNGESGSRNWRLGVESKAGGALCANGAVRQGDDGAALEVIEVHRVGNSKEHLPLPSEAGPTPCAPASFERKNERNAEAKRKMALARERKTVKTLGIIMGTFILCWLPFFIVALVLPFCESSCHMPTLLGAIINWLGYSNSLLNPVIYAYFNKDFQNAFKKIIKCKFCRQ
pKi: −log10 of the molar value.
Hi, to clarify the labels: Criterion met covers pKi from 7 upward, Criterion not met covers anything below 7.

- Compound: "CC(=O)c1ccc2[nH]cc(CCN)c2c1 [ACETRYPTINE]"
  Group: "Criterion met"
- Compound: "CCCCCCCCC(=O)Oc1ccc2[nH]cc(CCN(C)C)c2c1"
  Group: "Criterion met"
- Compound: "CCc1ccc2[nH]cc(CCN)c2c1"
  Group: "Criterion met"
- Compound: "CCCCCCCCCOc1ccc2[nH]cc(CCN(C)C)c2c1"
  Group: "Criterion not met"
- Compound: "CCCCCOc1ccc2[nH]cc(CCN)c2c1"
  Group: "Criterion met"
- Compound: "COc1ccc2[nH]cc(CCN)c2c1 [5-METHOXYTRYPTAMINE]"
  Group: "Criterion met"
- Compound: "CCc1ccc2[nH]cc(CCN(C)C)c2c1"
  Group: "Criterion met"
- Compound: "CCC(=O)Oc1ccc2[nH]cc(CCN(C)C)c2c1"
  Group: "Criterion not met"
- Compound: "CCCCCCCOc1ccc2[nH]cc(CCN)c2c1"
  Group: "Criterion met"
- Compound: "NCCc1c[nH]c2ccc(OCCCCC3CCCCC3)cc12"
  Group: "Criterion not met"
- Compound: "CCCCCCCCCCCOc1ccc2[nH]cc(CCN)c2c1"
  Group: "Criterion not met"

Values compiled from ChEMBL document CHEMBL1129297.
